# credit: patent US20250241939A1

# Test system: MIA (pancreatic cancer) cell genome
# assay_comment: ctDNA coculture with MIA cells, whole genome sequencing: genomic insertion sites, transposons at insertion points and SNVs (pancreatic cancer)
# Type: cell-based, human
# applied_conditions: TABLE 4; identified genomic insertion site, chromosome

{"molecule": "35 (nucleic acid, listed as Homo sapiens) AAGATGGGGAGGATGGTGGTGGAGCAGGCTGGGGAGATGAGGAGCTTGAGGGGCCTAGGAGCTAACCACCCATTCACTGTTTATGGGTGGGGTGGCTCCGGGCAGGTGGCCTGACCCCTCTAAACCTCAGTTTCCCCATCTGTAAAATGGGAGTAATTGTACCTGCCTCACGGGCATGTAGCAGGTGGGAGAGAGAGTAATACGGGCAAGACGTCTAGTGCAGTGGCTGGAACATAACAAGCACCCAGCAAGTGGTGGCCCCATTGCT", "Location": "Chr14"}
{"molecule": "50 (nucleic acid, listed as Homo sapiens) CAGTCTTTCAGGACCAGAAGAGATGGATTTTAGGTTTTCCTTCCACTCAATGTATTCTATATGTACCCTAATCAACAAACATGCCTGGTTGTCACAGGTAGAAGGGGTCTCTACTCTGAATCATTCAGAGAAGAAATAATCATATTCTTTCGATGCTATCACTAACACAGGACCGTGATCCGAGACAACCAGGTTCAGTTCTTGATATGTAAAGGAATTTGGGAAAATATCATCTCTCACCACAAAATCTGTATTTTTATGTATATTTAAGCAAAATCCTGTTTTGGTCATCATTTTCTTTACCTTTCTTCTATATCCATCCTAATCTCCCTTTCAGC", "Location": "Chr 7"}
